Give measured normalized RNA/DNA level with ligand (log10) for each item. Keep answers brief.
B1: library; a variant is named by its letters at N, in order (parent)
chain: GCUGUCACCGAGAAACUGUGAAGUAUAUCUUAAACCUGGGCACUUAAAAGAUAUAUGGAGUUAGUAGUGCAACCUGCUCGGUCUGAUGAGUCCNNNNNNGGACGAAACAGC

Variants of: B1
ASSAY_COMMENT: normalized RNA/DNA level with ligand (relative to sTRSVctl = 100) (log10 (% of sTRSVctl)); HEK293T; ligand: cyclic di-GMP (c-di-GMP-II aptamer); ligand concentration (+) RNA-Seq: 1 mM; higher = less ribozyme self-cleavage, higher mRNA level
COND: reporter: mCherry (pCS4076), ligand present: yes
Give bare numbers.

As a guide, the following entries are already answered.
VARIANT_ID | NUMERIC_READOUT
CUCUUC | 1.87
UGAAUC | 1.85
UGUACA | 1.88
GUAAGC | 1.76
GUGUAC | 1.78

Give normalized RNA/DNA level with ligand (log10) for each listed item.
1. GUAGUG
2. CUACGC
3. CAGGGG
4. AUGUGG

OUTPUT:
[1.81, 1.86, 1.74, 1.72]
